PROCEDURE_DETAILS: Pharmacokinetic data for study drugs
Design: species or system RA patients
CONDITION_CONTEXT: human, in vivo; 20-mg; day-7; read-out: Cmin
EXPERIMENTAL_ENDPOINT: concentration at 7 day (ng/mL)
All answers are understood in ng/mL, so give the number only.

Problem: Reported concentration at 7 day, compound CCOc1cc([C@@H](CS(C)(=O)=O)N2C(=O)c3cccc(NC(C)=O)c3C2=O)ccc1OC [Compound A] : ____
Result: 4.9

* * *

PROCEDURE_DETAILS: Pharmacokinetic data for study drugs
Parameters: species or system RA patients
CONDITION_CONTEXT: human, in vivo; 20-mg; day-7
EXPERIMENTAL_ENDPOINT: Cmax (ng/mL)
Numbers only; they are read as ng/mL.

Problem: Given the entry "CCOc1cc([C@@H](CS(C)(=O)=O)N2C(=O)c3cccc(NC(C)=O)c3C2=O)ccc1OC" , report its measured Cmax.
Result: 419
